Origin of measurements: PubChem BioAssay (NCATS)

- Experimental Details: qHTS of pediatric cancer cell lines to identify multiple opportunities for drug repurposing: Primary screen for BT-37 cells (AID 1347094)
- Run Conditions: BT-37 viability, CellTiter-Glo luminescence, 48 h; series mostly up to 57.3 µM
Records with an inconclusive call do not appear. Calls of active or inactive are those of the source. The call rests on the fitted dose curve; in most records, active means well fitted cell-killing curve with a large enough effect; inconclusive means small, poorly fitted or top-dose-only effect; inactive means flat fitted curve, though single readings scatter.
Outcome (select one): T for active, F for inactive

O=C(NCCS(=O)(=O)c1ccc(C(F)(F)F)cn1)c1ccc(Cl)cc1    F
Cc1ccc(C(=O)Nc2ccc(CN3CCN(C)CC3)c(C(F)(F)F)c2)cc1C#Cc1cnc2cccnn12    T

Qu. # fetch the recorded call for CC1(C)OC2=C(C(=O)c3ccccc3C2=O)[C@H](NCc2ccccc2)[C@H]1O here
Ans. T

Qu. Field: outcome | Entry: COc1cc2c(Oc3ccc(-c4cnc(Nc5ccc(F)cc5)n(C)c4=O)cc3F)ccnc2cc1OCCCN1CCOCC1
Ans. T

Qu. Look up the recorded call for CCOC(=O)C1=C(C)NC2=C(C(=O)CC(C)(C)C2)C1c1ccc(-c2ccccc2)cc1 (stereo not drawn) in this test.
Ans. T

----------
- Experimental Details: qHTS of pediatric cancer cell lines to identify multiple opportunities for drug repurposing: Confirmatory screen for TC32 cells (AID 1347118);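 further: cells exposed to compound for 48 h before the read; nearly all actives have a fitted effect of over 65% in size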
- Run Conditions: TC32 Ewing sarcoma cells viability qHTS; series mostly up to 45.9 µM
Results filed as inconclusive are left out. Active and inactive are the calls of the source. Calls come from the whole dose curve; as a rule, active = well fitted cell-killing curve with a large enough effect; inconclusive = small, poorly fitted or top-dose-only effect; inactive = no such curve, though single readings can be large or run the other way.
Outcome field: choose from t = active, f = inactive

CCOc1cc2ncc(C#N)c(Nc3ccc(F)c(Cl)c3)c2cc1NC(=O)C=CCN(C)C    t
CC1=C(CO)C(=O)O[C@@H]([C@@H](C)[C@H]2CC[C@H]3[C@@H]4C[C@H]5O[C@]56[C@@H](O)C=CC(=O)[C@]6(C)[C@@H]4CC[C@]23C)C1    f
OCCCNc1cc(-c2ccnc(Nc3cccc(Cl)c3)n2)ccn1    t
CC(=O)OCC(=O)[C@@]1(O)[C@H](C)C[C@H]2[C@@H]3C=C(C)C4=Cc5c(cnn5-c5ccccc5)C[C@]4(C)[C@@H]3[C@@H](O)C[C@@]21C    t
Cc1c(C)n(Cc2ccc(-c3ccccc3C(=O)O)cc2)c2ccc(C(=O)N[C@@H](C)c3ccc([N+](=O)[O-])cc3)cc12    f

Let us examine a further case.
Qu. Hi, do you know how CNC(=O)c1ccccc1Nc1nc(Nc2ccc(N3CCOCC3)cc2OC)ncc1Cl came out in this test?
Ans. t

----------
- Experimental Details: Quantitative High-Throughput drug screen in 47 multiple myeloma cell lines against the NCATS MIPE library collection: KMS34_JCRB cell viability assay (AID 1918985); further: nearly all actives have a fitted effect of over 40% in size
- Run Conditions: KMS34 myeloma viability, CellTiter-Glo ATP luminescence, 48 h; series mostly up to 45.8 µM
Results filed as inconclusive are left out. The source made the active and inactive calls. Calls come from the whole dose curve; as a rule, active = well fitted cell-killing curve with a large enough effect; inconclusive = small, poorly fitted or top-dose-only effect, or effect the other way; inactive = no such curve, though single readings can be large or run the other way.
Hello, when you answer, please use one of the following outcomes: active, inactive

Worked examples follow.
COCCn1c2c([n+](Cc3cnccn3)c1C)C(=O)c1ccccc1C2=O    active
Cc1[nH]nc2ccc(-c3cncc(OC[C@@H](N)Cc4ccccc4)c3)cc12    active
CC(=O)Nc1sc2c(c1-c1nc3ccccc3s1)CNC2    active
Cn1c(=O)n(-c2ccc(C(C)(C)C#N)cc2)c2c3cc(-c4cnc5ccccc5c4)ccc3ncc21    active
O=C(NCCS(=O)(=O)c1ccc(C(F)(F)F)cn1)c1ccc(Cl)cc1    inactive
Cn1cncc1[C@@](N)(c1ccc(Cl)cc1)c1ccc2c(c1)c(-c1cccc(Cl)c1)cc(=O)n2C    active

Turning now to a further record.
Qu. Which outcome did this test record for the molecule Cc1cnc(Nc2ccc(F)cc2Cl)nc1-c1c[nH]c(C(=O)N[C@H](CO)c2cccc(Cl)c2)c1 ?
Ans. active
